# Assay Target: 5-hydroxytryptamine receptor 2A (Homo sapiens)
# Assay Name: Binding affinity to human recombinant 5-HT2A receptor expressed in HEK293 cells at 1 uM by radioligand displacement assay relative to control
# Type: cell-based
Assign inhibition to each entry below.
Answers are plain numbers, in %.

Molecule Smiles: CN(C(=O)CCCCCN1CCN(c2cccc3ccccc23)CC1)c1cccc(O)c1
inhibition [%]: 99

Batch request: inhibition per item, same order as input.
1. Oc1ccc2[nH]cc(CCN3CCN(c4ccccc4)CC3)c2c1
2. CN(CCCN1CCN(c2ccccc2)CC1)c1cccc(O)c1
3. Oc1ccc2[nH]cc(CCN3CCN(c4cccc5ccccc45)CC3)c2c1

Given back:
1. 97
2. 79
3. 100

###

# Assay Target: 5-hydroxytryptamine receptor 7 (Homo sapiens, UniProt P34969)
# Sequence (P34969 whole entry): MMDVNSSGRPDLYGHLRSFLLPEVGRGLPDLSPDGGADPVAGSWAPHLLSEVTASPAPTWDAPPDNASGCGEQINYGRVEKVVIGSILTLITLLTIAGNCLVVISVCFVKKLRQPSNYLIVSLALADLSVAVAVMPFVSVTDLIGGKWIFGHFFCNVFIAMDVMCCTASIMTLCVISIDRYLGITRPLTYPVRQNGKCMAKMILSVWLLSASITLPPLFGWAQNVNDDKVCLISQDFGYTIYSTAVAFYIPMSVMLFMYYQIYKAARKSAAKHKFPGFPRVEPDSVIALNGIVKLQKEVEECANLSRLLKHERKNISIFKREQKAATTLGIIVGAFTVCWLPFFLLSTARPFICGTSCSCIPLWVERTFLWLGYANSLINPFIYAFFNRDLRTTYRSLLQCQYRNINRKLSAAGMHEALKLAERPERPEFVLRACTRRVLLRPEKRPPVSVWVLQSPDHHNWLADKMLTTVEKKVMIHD
# Assay Name: Displacement of [3H]5-HT from human 5-HT7 receptor expressed in HEK293 cells after 30 mins by microbeta counting analysis
# Type: cell-based
Each entry belongs to exactly one class, chosen by where its Ki falls: range 1: < 20 nM; range 2: ≥ 20 nM and < 100 nM; range 3: ≥ 100 nM

Compound: Oc1cccc2c1CC(N1CCN(c3ccccc3)CC1)CC2 (racemic)
Group Label: range 2
--
Compound: Oc1cccc(NCCN2CCN(c3ccccc3)CC2)c1
Group Label: range 3
--
Compound: CN(CCN1CCN(c2ccccc2)CC1)c1cccc(O)c1
Group Label: range 3

Asked: Classify this compound: `CN(CCN1CCN(c2ccccc2)CC1)c1cccc(NS(C)(=O)=O)c1`
Given back: range 2

Asked: Classify this compound: `Oc1cccc(NCCCN2CCN(c3ccccc3)CC2)c1`
Given back: range 1

Asked: Classify this compound: `NC(=O)c1cccc(NCCCN2CCN(c3ccccc3)CC2)c1`
Given back: range 2

Asked: Classify this compound: `OCc1cccc(NCCCN2CCN(c3ccccc3)CC2)c1`
Given back: range 3

Asked: Classify this compound: `CN(CCCN1CCC(c2ccccc2)(c2ccccc2)CC1)c1cccc(O)c1`
Given back: range 3

Asked: Classify this compound: `Cc1[nH]c2ccc(O)cc2c1CCN1CCN(c2cccc3ccccc23)CC1`
Given back: range 1

Asked: Classify this compound: `CN(CCCCCCN1CCN(c2cccc(C(F)(F)F)c2)CC1)c1cccc(O)c1`
Given back: range 2

Asked: Classify this compound: `CN(C(=O)CCCCCN1CCN(c2cccc3ccccc23)CC1)c1cccc(O)c1`
Given back: range 1

Asked: Classify this compound: `CCN(CCCCCCN1CCN(c2ccccc2)CC1)c1cccc(O)c1`
Given back: range 3

Asked: Classify this compound: `Oc1cccc(N(CCCCCCN2CCN(c3ccccc3)CC2)Cc2ccccc2)c1`
Given back: range 3

###

# Assay Target: 5-hydroxytryptamine receptor 7 (Homo sapiens, UniProt P34969)
# Assay Name: Antagonist activity at human 5-HT7 receptor expressed in CHO cells assessed as inhibition of 5-HT-stimulated cAMP accumulation
Observable: pIC50
Numbers only, as −log10 of the molar value.

Asked: Recall the recorded pIC50 for `CN(CCCCN1CCN(c2ccccc2)CC1)c1cccc(O)c1` with 5-hydroxytryptamine receptor 7 (Homo sapiens, UniProt P34969) and state it.
Given back: 6.27

###

Assign inhibition to each entry below.
# Assay Target: 5-hydroxytryptamine receptor 3A (Homo sapiens)
# Sequence (whole entry): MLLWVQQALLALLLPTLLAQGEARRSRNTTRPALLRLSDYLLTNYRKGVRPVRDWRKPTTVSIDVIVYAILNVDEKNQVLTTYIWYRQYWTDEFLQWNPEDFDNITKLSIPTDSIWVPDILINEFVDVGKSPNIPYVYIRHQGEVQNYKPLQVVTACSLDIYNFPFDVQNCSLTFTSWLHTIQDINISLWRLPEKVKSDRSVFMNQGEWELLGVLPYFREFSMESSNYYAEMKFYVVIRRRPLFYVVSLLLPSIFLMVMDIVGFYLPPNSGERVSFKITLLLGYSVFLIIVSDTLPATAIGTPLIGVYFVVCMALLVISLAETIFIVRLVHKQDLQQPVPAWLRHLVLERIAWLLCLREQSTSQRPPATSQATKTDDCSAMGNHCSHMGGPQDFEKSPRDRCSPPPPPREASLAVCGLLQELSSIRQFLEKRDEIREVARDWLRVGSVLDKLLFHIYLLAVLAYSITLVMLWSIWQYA
# Assay Name: Binding affinity to human 5-HT3 receptor at 1 uM by radioligand displacement assay relative to control
One number for each entry, in %.

Molecule Smiles: CN(C(=O)CCCCCN1CCN(c2cccc3ccccc23)CC1)c1cccc(O)c1
inhibition (%): 6

Molecule Smiles: CN(CCCN1CCN(c2ccccc2)CC1)c1cccc(O)c1
inhibition (%): 5

Molecule Smiles: Oc1ccc2[nH]cc(CCN3CCN(c4cccc5ccccc45)CC3)c2c1
inhibition (%): 15

Moving on to another compound below.
Asked: Need inhibition, item `Oc1ccc2[nH]cc(CCN3CCN(c4ccccc4)CC3)c2c1`
Given back: 1

###

# Assay Target: 5-hydroxytryptamine receptor 7 (Homo sapiens)
# Assay Name: Binding affinity to human recombinant 5-HT7 receptor expressed in CHO cells after 30 mins by radioligand displacement assay
# Assay type: cell-based
Observable: pKi
Give bare numbers, as −log10 of the molar value.

These recorded examples may help you get a feel for the data.
Molecule Smiles: Oc1ccc2[nH]cc(CCN3CCN(c4ccccc4)CC3)c2c1
pKi: 7.20
//
Molecule Smiles: CN(CCCN1CCN(c2ccccc2)CC1)c1cccc(O)c1
pKi: 7.70
//
Molecule Smiles: Oc1ccc2[nH]cc(CCN3CCN(c4cccc5ccccc45)CC3)c2c1
pKi: 7.94

Moving on to another compound below.
Asked: Need pKi, item `CN(C(=O)CCCCCN1CCN(c2cccc3ccccc23)CC1)c1cccc(O)c1`
Given back: 8.09

###

Assign inhibition to each entry below.
# Assay Target: UniProtKB P34969
# Assay Name: Displacement of [3H]5-HT from human 5-HT7 receptor expressed in HEK293 cells at 10^-6 mol/L after 30 mins by microbeta counting analysis
# Format: cell-based
// return the numeric value with its unit appended

Molecule Smiles: CN(CCN1CCN(c2ccccc2)CC1)c1cccc(N)c1
Observable: inhibition
Assay Value: 40%
//
Molecule Smiles: Oc1cccc(OCCN2CCN(c3ccccc3)CC2)c1
Observable: inhibition
Assay Value: 21%
//
Molecule Smiles: Oc1ccc2[nH]cc(CCN3CCN(c4cccc(-c5ccccc5)c4)CC3)c2c1
Observable: inhibition
Assay Value: 42%
//
Molecule Smiles: CN(CCN1CCN(Cc2ccccc2)CC1)c1cccc(O)c1
Observable: inhibition
Assay Value: 42%

Asked: Need inhibition, item `CN(CCCCCCN1CCN(c2ccnc3cc(Cl)ccc23)CC1)c1cccc(O)c1`
Given back: 28%

###

Assign inhibition to each entry below.
# Assay Target: 5-hydroxytryptamine receptor 4 (Homo sapiens)
# Assay Name: Binding affinity to human recombinant 5-HT4E receptor expressed in CHO cells at 1 uM after 30 mins by radioligand displacement assay relative to control
# Assay type: cell-based
Give bare numbers, in %.

These recorded examples may help you get a feel for the data.
Molecule Smiles: Oc1ccc2[nH]cc(CCN3CCN(c4ccccc4)CC3)c2c1
inhibition (%): 17
//
Molecule Smiles: CN(CCCN1CCN(c2ccccc2)CC1)c1cccc(O)c1
inhibition (%): -5
//
Molecule Smiles: CN(C(=O)CCCCCN1CCN(c2cccc3ccccc23)CC1)c1cccc(O)c1
inhibition (%): 16

Moving on to another molecule below.
Asked: Need inhibition, item `Oc1ccc2[nH]cc(CCN3CCN(c4cccc5ccccc45)CC3)c2c1`
Given back: 7

###

# Assay Target: 5-hydroxytryptamine receptor 1D (Rattus norvegicus) (UniProt P28565)
# Sequence (P28565 whole entry): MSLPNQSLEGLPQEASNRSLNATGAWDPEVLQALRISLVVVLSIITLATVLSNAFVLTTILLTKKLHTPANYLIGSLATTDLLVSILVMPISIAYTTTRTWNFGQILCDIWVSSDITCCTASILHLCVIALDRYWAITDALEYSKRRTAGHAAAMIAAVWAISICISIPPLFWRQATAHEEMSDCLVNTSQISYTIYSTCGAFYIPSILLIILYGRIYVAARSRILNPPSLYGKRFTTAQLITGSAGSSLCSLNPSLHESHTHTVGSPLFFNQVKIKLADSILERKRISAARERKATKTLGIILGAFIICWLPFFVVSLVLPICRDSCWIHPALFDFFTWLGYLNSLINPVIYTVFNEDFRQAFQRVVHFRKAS
# Assay Name: Binding affinity to rat recombinant 5-HT1D receptor expressed in CHO cells at 1 uM by radioligand displacement assay relative to control
# Assay type: cell-based
Assign inhibition to each entry below.
Numbers only, in %.

Molecule Smiles: CN(CCCN1CCN(c2ccccc2)CC1)c1cccc(O)c1
Observable: inhibition
Result Unit: %
Assay Value: 18

Batch request: inhibition per item, same order as input.
1. Oc1ccc2[nH]cc(CCN3CCN(c4cccc5ccccc45)CC3)c2c1
2. CN(C(=O)CCCCCN1CCN(c2cccc3ccccc23)CC1)c1cccc(O)c1
3. Oc1ccc2[nH]cc(CCN3CCN(c4ccccc4)CC3)c2c1

Given back:
1. 99
2. 100
3. 60

###

# Assay Target: 5-hydroxytryptamine receptor 2C (Homo sapiens)
# Assay Name: Binding affinity to human recombinant 5-HT2C receptor expressed in HEK293 cells at 1 uM after 30 mins by radioligand displacement assay relative to control
# Format: cell-based
Assign inhibition to each entry below.
Answers are plain numbers, in %.

Molecule Smiles: CN(CCCN1CCN(c2ccccc2)CC1)c1cccc(O)c1
inhibition, %: 42

Molecule Smiles: Oc1ccc2[nH]cc(CCN3CCN(c4ccccc4)CC3)c2c1
inhibition, %: 66

Molecule Smiles: Oc1ccc2[nH]cc(CCN3CCN(c4cccc5ccccc45)CC3)c2c1
inhibition, %: 98

Moving on to another compound below.
Asked: Need inhibition, item `CN(C(=O)CCCCCN1CCN(c2cccc3ccccc23)CC1)c1cccc(O)c1`
Given back: 98

###

# Assay Target: 5-hydroxytryptamine receptor 7 (Homo sapiens)
# Assay Name: Antagonist activity at human 5-HT7 receptor expressed in CHO cells assessed as residual 5-HT-stimulated cAMP accumulation at 1 uM relative to control
Observable: % serotonin response

Molecule Smiles: CN(CCCCCCN1CCN(c2ccccc2)CC1)c1cccc(O)c1
% serotonin response: 56%

Batch request: % serotonin response per item, same order as input.
1. CN(CCCN1CCN(c2ccccc2)CC1)c1cccc(O)c1
2. CN(CCCCN1CCN(c2ccccc2)CC1)c1cccc(O)c1
3. CN(CCCCCN1CCN(c2ccccc2)CC1)c1cccc(O)c1

Given back:
["49%", "39%", "69%"]

Asked: Recall the recorded % serotonin response for `CN(CCN1CCN(c2ccccc2)CC1)c1cccc(NS(C)(=O)=O)c1` with 5-hydroxytryptamine receptor 7 (Homo sapiens) and state it.
Given back: 48%

These data points were gathered from ChEMBL document CHEMBL3259775.
